# Test system: Fibroblast
# Procedure details: Multiplex assay against human fibroblast
# Type: toxicity, cell-based
# Condition description: 48 h, 10 µM, compound concentration 10 uM, replicate 2
// reported Population Normal (%) for each item listed

| Molecule | Unit symbol | Population Normal (%) |
| --- | --- | --- |
| N#CCNC(=O)c1ccc(-c2ccnc(Nc3ccc(N4CCOCC4)cc3)n2)cc1 [MOMELOTINIB] | % | 91 |
| C=CC(=O)Nc1cc(-n2c(=O)ccc3cnc4ccc(-c5ccc(NS(C)(=O)=O)cc5)cc4c32)ccc1C | % | 85 |
| c1ccc(-c2oc3ncnc(NC[C@@H]4CCCO4)c3c2-c2ccccc2)cc1 | % | 89 |
| CC(Cc1ccc(O)c(O)c1)C(C)Cc1ccc(O)c(O)c1 (stereo not given) [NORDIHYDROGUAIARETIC ACID] | % | 88 |
| Cc1c(Nc2ccc(S(=O)(=O)N3CCN(C)CC3)cc2F)nc2ccc(-c3cnn(C4CC4)c3)cn2c1=O | % | 80 |
| CN1CCN(Cc2ccc(-c3cnc4[nH]cc(-c5ccc6[nH]ccc6c5)c4c3)cc2)CC1 | % | 59 |
| CN(c1cc(C(F)(F)F)nc(OCCC(=O)O)n1)c1cccc2c1CCC2 | % | 89 |
| N#Cc1cccc(C(=O)Nc2cc(-c3ccccc3)nn2-c2ccccc2)c1 | % | 65 |
| Cl.NC[C@@H]1O[C@H](C23CC4CC(CC(C4)C2)C3)Cc2c1ccc(O)c2O | % | 82 |
| CC(C)c1cc(Nc2nc(N3CCC[C@H](N)C3)ncc2C(N)=O)cc(C(C)C)n1 | % | 68 |
| Cc1c(P(=S)(c2ccccc2)c2ccccc2)n2ccccc2[n+]1C/C=C/c1ccccc1.[Br-] | % | 67 |
| C[C@@H](Oc1cc(-n2cnc3ccc(CN4CCN(C)CC4)cc32)sc1C(N)=O)c1ccccc1C(F)(F)F [GSK-461364] | % | 61 |
| CC(C)[C@H](CO)Nc1nc(Nc2cccc(Cl)c2)c2ncn(C(C)C)c2n1 [PURVALANOLA] | % | 81 |
| CN1C(=O)[C@@H](NC(=O)c2cc3ccccc3[nH]2)N=C(c2ccccc2)c2ccccc21 [DEVAZEPIDE] | % | 91 |
| CCCCCNC(=N)N/N=C/c1c[nH]c2ccc(OC)cc12.O=C(O)/C=C\C(=O)O [TEGASEROD MALEATE] | % | 54 |
| CC(/C=C1\SC(=S)N(CCCC(=O)Nc2ccc(C(=O)O)c(O)c2)C1=O)=C\c1ccccc1 | % | 87 |
| Cc1ccc(S(=O)(=O)NC2c3ccccc3Oc3ccccc32)cc1 | % | 85 |
| CCCc1cc(C)[nH]c(=O)c1CNC(=O)c1cc(-c2ccc(N3CCN(C(C)C)CC3)nc2)cc2c1cnn2C(C)C | % | 45 |
| Oc1cccc(-c2nc(N3CCOCC3)c3oc4ncccc4c3n2)c1 [PI-103] | % | 59 |
| CCCCN(CC)c1nc(C)nc2c1c(C)cn2-c1c(C)cc(C)cc1C.Cl | % | 87 |

###

# Test system: Fibroblast
# Procedure details: Multiplex assay against human fibroblast
# Assay type: toxicity, cell-based
# Condition description: 12 h, 1 µM, compound concentration 1 uM, replicate 1
In this section, each of the compounds is paired with its reported Population Mitotic Cells (%).

| Compound | Population Mitotic Cells (%) |
| --- | --- |
| Cc1c(Nc2ccc(S(=O)(=O)N3CCN(C)CC3)cc2F)nc2ccc(Nc3cnn(C4CC4)c3)cn2c1=O | 35 |
| CC(C)c1cc(Nc2nc(N3CCC[C@H](N)C3)ncc2C(N)=O)cc(C(C)C)n1 | 42 |
| CCCc1cc(C)[nH]c(=O)c1CNC(=O)c1cc(-c2ccc(N3CCN(C(C)C)CC3)nc2)cc2c1cnn2C(C)C | 26 |
| Cl.NC[C@@H]1O[C@H](C23CC4CC(CC(C4)C2)C3)Cc2c1ccc(O)c2O | 40 |
| CC[C@@H]1C(=O)N(C)c2cnc(Nc3ccc(C(=O)NC4CCN(C)CC4)cc3OC)nc2N1C1CCCC1 | 17 |
| Cc1ccc(NC(=O)Nc2cc(C(F)(F)F)ccc2F)cc1Nc1ccc2c(c1)NC(=O)/C2=C\c1ccc[nH]1 | 63 |
| CN1C(=O)[C@@H](NC(=O)c2cc3ccccc3[nH]2)N=C(c2ccccc2)c2ccccc21 [DEVAZEPIDE] | 27 |
| CC(C)C[C@H](NC(=O)[C@H](Cc1ccccc1)NC(=O)CNC(=O)CNC(=O)[C@@H](N)Cc1ccc(O)cc1)C(=O)O | 31 |
| C=CC(=O)Nc1cc(-n2c(=O)ccc3cnc4ccc(-c5ccc(NS(C)(=O)=O)cc5)cc4c32)ccc1C | 47 |
| N#CCNC(=O)c1ccc(-c2ccnc(Nc3ccc(N4CCOCC4)cc3)n2)cc1 | 35 |
| Cl.Cn1c2c(c3ccc(Cl)c(Cl)c31)C(C#N)C1(CCNCC1)NC2=O (configuration not stated) | 25 |
| CCOc1ccn(-c2ccc(F)cc2)c(=O)c1C(=O)Nc1ccc(Oc2ccnc(N)c2Cl)c(F)c1 | 22 |
| CCCCN(CC)c1nc(C)nc2c1c(C)cn2-c1c(C)cc(C)cc1C.Cl | 36 |
| Cc1ccc(S(=O)(=O)NC2c3ccccc3Oc3ccccc32)cc1 | 42 |
| CC(Cc1ccc(O)c(O)c1)C(C)Cc1ccc(O)c(O)c1 (configuration not stated) [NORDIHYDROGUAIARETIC ACID] | 33 |
| CC[C@H](Nc1ncnc2[nH]cnc12)c1nc2cccc(F)c2c(=O)n1-c1ccccc1 | 8 |
| Oc1cccc(-c2nc(N3CCOCC3)c3oc4ncccc4c3n2)c1 | 36 |
